System: IL-2
Assay: PHA-IL2 (cell activation and cytokine analysis)
Format: cell-based
Conditions: 50% inhibition concentration class
Listing of recorded IC50 by entry.

Some compounds with known IC50 results, for comparison:
>>> result("CCc1ccc(OCC(=O)N2CCC(CCc3ccc4c(c3)OCO4)CC2)c(-c2ccc(C#N)cc2)c1")
"1000 to 10000 nM"
>>> result("O=C1COc2ccc(CCC3CCN(C(=O)COc4ccccc4-c4ccccc4)CC3)cc2N1")
"1000 to 10000 nM"
>>> result("O=C(COc1ccccc1-c1ccc(F)cc1O)N1CCC(CCc2ccc(N3CCOCC3)cc2)CC1")
"< 1000 nM"
>>> result("O=C(COc1ccccc1-c1ccc(Cl)nc1)N1CCC(CCc2ccccc2)CC1")
"< 1000 nM"
>>> result("Cc1ccc(-c2ccccc2OCC(=O)N2CCC(CCc3ccccc3)CC2)nn1")
"< 1000 nM"
>>> result("O=C(COc1cccnc1-c1ccc(F)cc1O)N1CCC(CCc2ccccc2)CC1")
"1000 to 10000 nM"
>>> result("N#Cc1ccc(-c2cc(C(=O)O)ccc2OCC(=O)N2CCC(CCc3ccccc3)CC2)cc1")
"1000 to 10000 nM"

// below: IC50 requested for another compound
Suppose we examine the compound `O=C(COc1ccccc1-c1ccc2[nH]ncc2c1)N1CCC(CCc2ccccc2)CC1` ; what IC50 value has been reported?
< 1000 nM
